Hey, just so you know, these numbers are from PubChem BioAssay (NCI).

Assay: NCI Yeast Anticancer Drug Screen. Data for the rad50 strain (AID 155);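 also: 0% = growth of vehicle-only cultures of the same strain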
Settings: S. cerevisiae rad50 strain growth inhibition, active compounds read high; at 50.0 µM unless noted
Protocol: Growth inhibition of yeast strains with defined genetic alterations is measured as a screen for potential anti-cancer activity. Selected strains with alterations in DNA damage repair or cell cycle control were exposed to compounds and growth inhibition was measured relative to vehicle treated controls. The strain used in this assay is rad50
Compounds without any hit were thinned out: in the full panel of roughly 79,000, 15% have a hit.
// reported growth inhibition per item
Write the answer as a number in %, unit excluded.

[
  {
    "molecule": "O=C(Cc1ccccc1)NCc1ccco1",
    "test result": -3.25
  },
  {
    "molecule": "CCC1(C=O)C(=O)NC(=O)N1C (stereo unspecified)",
    "test result": 3.4
  },
  {
    "molecule": "O=c1[nH]c2cc(Cl)ccc2nc1/C(=N\\O)C(O)c1ccc([N+](=O)[O-])cc1 (stereo unspecified)",
    "test result": 8
  }
]

Reported growth inhibition for C[C@H]1CC[C@@H]2O[C@@]23C(=O)OC2OC(C)(C)[C@@H]([C@H]2O)[C@]13C : what is it?
-18.6

Quick one: growth inhibition of O=C1NC(=O)C2(CCCC2)N1 ?
-9.4
